Taken from the supplement of paper PMC10307832.

Test system: A-427
Assay: relative viability (nuclei count vs DMSO), 5 days (fraction); higher = more cells survive
Conditions: first compound 0.01 µM
Classify: 1.0 when relative viability is strictly less than 0.7; 0.0 when relative viability is not.

[
  {
    "Compound": "Cc1cn(-c2cc(NC(=O)c3ccc(C)c(Nc4nccc(-c5cccnc5)n4)c3)cc(C(F)(F)F)c2)cn1 [Nilotinib] + O=C(CCCCCCC(=O)Nc1ccccc1)NO [Vorinostat] (partner 1 µM)",
    "Label": 0.0
  },
  {
    "Compound": "Cc1cn(-c2cc(NC(=O)c3ccc(C)c(Nc4nccc(-c5cccnc5)n4)c3)cc(C(F)(F)F)c2)cn1 [Nilotinib] + Cc1nc(NC(=O)N2CCC[C@H]2C(N)=O)sc1-c1ccnc(C(C)(C)C(F)(F)F)c1 [Alpelisib] (partner 2 µM)",
    "Label": 0.0
  },
  {
    "Compound": "Cc1cn(-c2cc(NC(=O)c3ccc(C)c(Nc4nccc(-c5cccnc5)n4)c3)cc(C(F)(F)F)c2)cn1 [Nilotinib] + Nc1ncn([C@H]2C[C@H](O)[C@@H](CO)O2)c(=O)n1 [Decitabine] (partner 2 µM)",
    "Label": 1.0
  },
  {
    "Compound": "Cc1cn(-c2cc(NC(=O)c3ccc(C)c(Nc4nccc(-c5cccnc5)n4)c3)cc(C(F)(F)F)c2)cn1 [Nilotinib] + CC(=O)Nc1cccc(-n2c(=O)n(C3CC3)c(=O)c3c(Nc4ccc(I)cc4F)n(C)c(=O)c(C)c32)c1 [Trametinib] (partner 0.02 µM)",
    "Label": 0.0
  },
  {
    "Compound": "Cc1cn(-c2cc(NC(=O)c3ccc(C)c(Nc4nccc(-c5cccnc5)n4)c3)cc(C(F)(F)F)c2)cn1 [Nilotinib] + CS(=O)(=O)CCNCc1ccc(-c2ccc3ncnc(Nc4ccc(OCc5cccc(F)c5)c(Cl)c4)c3c2)o1 [Lapatinib] (partner 2 µM)",
    "Label": 0.0
  }
]

---

System: NCI-H441
Experiment: relative viability (nuclei count vs DMSO), 5 days (fraction); higher = more cells survive
Conditions: first compound 0.8 µM
Classify: y when relative viability is strictly less than 0.4; n when relative viability is not.

[
  {
    "Molecule": "Nc1cccc2c1CN(C1CCC(=O)NC1=O)C2=O (stereo not given) [Lenalidomide] + O=C(CCCCCCC(=O)Nc1ccccc1)NO [Vorinostat] (partner 1 µM)",
    "Label": "n"
  },
  {
    "Molecule": "Nc1cccc2c1CN(C1CCC(=O)NC1=O)C2=O (stereo not given) [Lenalidomide] + CC(=O)c1c(C)c2cnc(Nc3ccc(N4CCNCC4)cn3)nc2n(C2CCCC2)c1=O [Palbociclib] (partner 0.5 µM)",
    "Label": "y"
  },
  {
    "Molecule": "Nc1cccc2c1CN(C1CCC(=O)NC1=O)C2=O (stereo not given) [Lenalidomide] + Nc1nc2[nH]cc(CCc3ccc(C(=O)N[C@@H](CCC(=O)O)C(=O)O)cc3)c2c(=O)[nH]1 [Pemetrexed] (partner 0.2 µM)",
    "Label": "y"
  },
  {
    "Molecule": "Nc1cccc2c1CN(C1CCC(=O)NC1=O)C2=O (stereo not given) [Lenalidomide] + C[C@]1(O)C[C@@H](c2nc(-c3ccc4ccc(-c5ccccc5)nc4c3)c3c(N)nccn32)C1 [Linsitinib] (partner 1 µM)",
    "Label": "y"
  },
  {
    "Molecule": "Nc1cccc2c1CN(C1CCC(=O)NC1=O)C2=O (stereo not given) [Lenalidomide] + CCNC(=O)c1noc(-c2cc(C(C)C)c(O)cc2O)c1-c1ccc(CN2CCOCC2)cc1 [Luminespib] (partner 0.01 µM)",
    "Label": "y"
  }
]

---

Test system: NCI-H650
Experiment: relative viability (nuclei count vs DMSO), 5 days (fraction); higher = more cells survive
Conditions: first compound 0.02 µM
Reported relative viability values follow for various compounds
Property: relative viability

[
  {
    "Compound": "CN1CCN(CCOc2cc(OC3CCOCC3)c3c(Nc4c(Cl)ccc5c4OCO5)ncnc3c2)CC1 [Saracatinib] + C[C@]1(O)C[C@@H](c2nc(-c3ccc4ccc(-c5ccccc5)nc4c3)c3c(N)nccn32)C1 [Linsitinib] (partner 1 µM)",
    "Value Measured": 0.94
  },
  {
    "Compound": "CCNC(=O)c1noc(-c2cc(C(C)C)c(O)cc2O)c1-c1ccc(CN2CCOCC2)cc1 [Luminespib] + CC(=O)c1c(C)c2cnc(Nc3ccc(N4CCNCC4)cn3)nc2n(C2CCCC2)c1=O [Palbociclib] (partner 0.5 µM)",
    "Value Measured": 0.277
  },
  {
    "Compound": "CCNC(=O)c1noc(-c2cc(C(C)C)c(O)cc2O)c1-c1ccc(CN2CCOCC2)cc1 [Luminespib] + N=C(N)NC(=N)NCCc1ccccc1 [Phenformin] (partner 250 µM)",
    "Value Measured": 0.391
  },
  {
    "Compound": "CN1CCN(CCOc2cc(OC3CCOCC3)c3c(Nc4c(Cl)ccc5c4OCO5)ncnc3c2)CC1 [Saracatinib] + CC(C)C[C@H](NC(=O)[C@H](Cc1ccccc1)NC(=O)c1cnccn1)B(O)O [Bortezomib] (partner 0.002 µM)",
    "Value Measured": 0.925
  },
  {
    "Compound": "CN1CCN(CCOc2cc(OC3CCOCC3)c3c(Nc4c(Cl)ccc5c4OCO5)ncnc3c2)CC1 [Saracatinib] + Cc1nc(Nc2ncc(C(=O)Nc3c(C)cccc3Cl)s2)cc(N2CCN(CCO)CC2)n1 [Dasatinib] (partner 0.075 µM)",
    "Value Measured": 0.491
  },
  {
    "Compound": "CCNC(=O)c1noc(-c2cc(C(C)C)c(O)cc2O)c1-c1ccc(CN2CCOCC2)cc1 [Luminespib] + COc1cccc2cc(-c3nc([C@H]4CC[C@H](C(=O)O)CC4)n4ncnc(N)c34)[nH]c12 [OSI-027] (partner 0.5 µM)",
    "Value Measured": 0.378
  },
  {
    "Compound": "CN1CCN(CCOc2cc(OC3CCOCC3)c3c(Nc4c(Cl)ccc5c4OCO5)ncnc3c2)CC1 [Saracatinib] + COc1cccc2cc(-c3nc([C@H]4CC[C@H](C(=O)O)CC4)n4ncnc(N)c34)[nH]c12 [OSI-027] (partner 0.5 µM)",
    "Value Measured": 0.602
  },
  {
    "Compound": "CN1CCN(CCOc2cc(OC3CCOCC3)c3c(Nc4c(Cl)ccc5c4OCO5)ncnc3c2)CC1 [Saracatinib] + Nc1ncn([C@H]2C[C@H](O)[C@@H](CO)O2)c(=O)n1 [Decitabine] (partner 2 µM)",
    "Value Measured": 0.319
  }
]

---

System: ABC-1
Assay: relative viability (nuclei count vs DMSO), 5 days (fraction); higher = more cells survive
Conditions: first compound 20 µM

[
  {
    "Molecule": "Cc1csc(=NC2CCCCC2)n1/N=C/c1ccc(O)c(O)c1O [MIM1] + C[C@@H](Oc1cc(-c2cnn(C3CCNCC3)c2)cnc1N)c1c(Cl)ccc(F)c1Cl [Crizotinib] (partner 1 µM)",
    "relative viability": 0.226
  },
  {
    "Molecule": "Cc1csc(=NC2CCCCC2)n1/N=C/c1ccc(O)c(O)c1O [MIM1] + Cc1nc(Nc2ncc(C(=O)Nc3c(C)cccc3Cl)s2)cc(N2CCN(CCO)CC2)n1 [Dasatinib] (partner 0.075 µM)",
    "relative viability": 0.248
  },
  {
    "Molecule": "Cc1csc(=NC2CCCCC2)n1/N=C/c1ccc(O)c(O)c1O [MIM1] + CCNC(=O)c1noc(-c2cc(C(C)C)c(O)cc2O)c1-c1ccc(CN2CCOCC2)cc1 [Luminespib] (partner 0.01 µM)",
    "relative viability": 0.315
  },
  {
    "Molecule": "Cc1csc(=NC2CCCCC2)n1/N=C/c1ccc(O)c(O)c1O [MIM1] + CS(=O)(=O)CCNCc1ccc(-c2ccc3ncnc(Nc4ccc(OCc5cccc(F)c5)c(Cl)c4)c3c2)o1 [Lapatinib] (partner 2 µM)",
    "relative viability": 1.11
  },
  {
    "Molecule": "Cc1csc(=NC2CCCCC2)n1/N=C/c1ccc(O)c(O)c1O [MIM1] + Cc1cc(Nc2cc(N3CCN(C)CC3)nc(Sc3ccc(NC(=O)C4CC4)cc3)n2)n[nH]1 [Tozasertib] (partner 0.1 µM)",
    "relative viability": 0.194
  }
]

---

System: NCI-H1355
Assay: relative viability (nuclei count vs DMSO), 5 days (fraction); higher = more cells survive
Conditions: first compound 0.1 µM
Classify: Met when relative viability is strictly less than 0.7; Not met when relative viability is not.

[
  {
    "Compound": "Cc1cn(-c2cc(NC(=O)c3ccc(C)c(Nc4nccc(-c5cccnc5)n4)c3)cc(C(F)(F)F)c2)cn1 [Nilotinib] + CCNC(=O)c1noc(-c2cc(C(C)C)c(O)cc2O)c1-c1ccc(CN2CCOCC2)cc1 [Luminespib] (partner 0.01 µM)",
    "Label": "Met"
  },
  {
    "Compound": "Cc1cn(-c2cc(NC(=O)c3ccc(C)c(Nc4nccc(-c5cccnc5)n4)c3)cc(C(F)(F)F)c2)cn1 [Nilotinib] + CS(=O)(=O)N1CCN(Cc2cc3nc(-c4cccc5[nH]ncc45)nc(N4CCOCC4)c3s2)CC1 [Pictilisib] (partner 1 µM)",
    "Label": "Met"
  },
  {
    "Compound": "Cc1cn(-c2cc(NC(=O)c3ccc(C)c(Nc4nccc(-c5cccnc5)n4)c3)cc(C(F)(F)F)c2)cn1 [Nilotinib] + COc1cccc2cc(-c3nc([C@H]4CC[C@H](C(=O)O)CC4)n4ncnc(N)c34)[nH]c12 [OSI-027] (partner 0.5 µM)",
    "Label": "Met"
  },
  {
    "Compound": "Cc1cn(-c2cc(NC(=O)c3ccc(C)c(Nc4nccc(-c5cccnc5)n4)c3)cc(C(F)(F)F)c2)cn1 [Nilotinib] + Cc1nc(Nc2ncc(C(=O)Nc3c(C)cccc3Cl)s2)cc(N2CCN(CCO)CC2)n1 [Dasatinib] (partner 0.075 µM)",
    "Label": "Met"
  },
  {
    "Compound": "Cc1cn(-c2cc(NC(=O)c3ccc(C)c(Nc4nccc(-c5cccnc5)n4)c3)cc(C(F)(F)F)c2)cn1 [Nilotinib] + CC(=O)Nc1cccc(-n2c(=O)n(C3CC3)c(=O)c3c(Nc4ccc(I)cc4F)n(C)c(=O)c(C)c32)c1 [Trametinib] (partner 0.02 µM)",
    "Label": "Met"
  },
  {
    "Compound": "Cc1cn(-c2cc(NC(=O)c3ccc(C)c(Nc4nccc(-c5cccnc5)n4)c3)cc(C(F)(F)F)c2)cn1 [Nilotinib] + Cc1nc(NC(=O)N2CCC[C@H]2C(N)=O)sc1-c1ccnc(C(C)(C)C(F)(F)F)c1 [Alpelisib] (partner 2 µM)",
    "Label": "Not met"
  }
]
